Numbers sourced from PubChem BioAssay (NCI).

test system: KM12 colon; assay: NCI-60 one-dose screen, 48 h (100 = growth as untreated, 0 = no growth, -100 = all killed); settings: 10 µM
About 83,000 compounds went through this panel and 20% of them were active in at least one assay; those are over-represented in the sample as a whole.
QUANTITY MEASURED: growth (%)
Give bare numbers, in %.

The following compounds have reported results that may help.
> print(dat)
                                   compound  quantity.measured  units.of.measure  endpoint.value
1            C=CC(O)CCC (centres undefined)             growth                 %             109
2  OC1OC(COC(c2ccccc2)(c2ccccc2)c2ccccc2)C(O)C(O)C1O (centres undefined)             growth                 %             107
3          Sc1ccc(Nc2c3ccccc3nc3ccccc23)cc1             growth                 %            65.5

Would you be so kind as to report growth for each listed record?
1. O=[N+]([O-])c1ccc(-c2ncc(-c3ccc(Br)cc3)o2)cc1
2. Oc1ccc2c(c1)OCC1(O)Cc3cc(O)c(O)cc3C21 (centres undefined)
3. Cc1cc(C)c(CC(=O)O)c(C)c1

1: 119; 2: 96.5; 3: 103

Would you be so kind as to report growth for each listed record?
1. N#C/C(=C\c1cc(O)c(O)c(O)c1)C(N)=O
2. CNS(=O)(=O)c1ccc(Cl)c(Cl)c1
3. C[N+](C)=c1ccc2nc3c(cc(Nc4ccccc4)c4ccccc43)oc-2c1

103
108
62.5

* * *

tested on: OVCAR-8 ovarian; test: NCI-60 one-dose screen, 48 h (100 = growth as untreated, 0 = no growth, -100 = all killed); conditions: 10 µM
The panel holds about 83,000 compounds, 20% with a hit somewhere; the sample as a whole holds those more often.
Exercise: state measured growth for each of the molecules provided.
One number for each entry, in %.

> print(dat)
                                   molecule      measured.on  quantity.measured  endpoint.value
1     Clc1ccc(-c2n[nH]c3c2Cc2ccccc2-3)cc1Cl  OVCAR-8 ovarian             growth             110
2                     Cc1cc2ccccc2c(O)c1C#N  OVCAR-8 ovarian             growth            99.7
3                           OCCN(CCO)C(=S)S  OVCAR-8 ovarian             growth             100
4                                     NCCCN  OVCAR-8 ovarian             growth             104
5     O=C(O)C(O)c1ccccc1 (stereo not drawn)  OVCAR-8 ovarian             growth             105
6  COc1ccc(C2OC(N)=C(O)C2=O)cc1OC (stereo not drawn)  OVCAR-8 ovarian             growth             105

Would you be so kind as to report growth for each listed record?
1. Cc1nc2c(ccc3ccccc32)s1
2. O=[N+]([O-])c1ccc(Sc2ccncn2)c([N+](=O)[O-])c1
3. O=C(NCCNC(=O)c1ccc(Cl)cc1Cl)c1ccc(Cl)cc1Cl

1: 94.1; 2: 102; 3: 94.7

Would you be so kind as to report growth for each listed record?
1. Cc1cccc(C(=O)N(C(C)C)C(C)C)c1
2. CC(CN1CCCCC1)NC(=O)c1scnc1-c1ccccc1 (stereo not drawn)
3. CCc1ccc(/C(C#N)=C/C=C/c2ccccc2)cc1
4. CC(=O)c1ccc2c(ccc3ccccc32)c1
5. CC(C)=CC(=O)OC(=O)C=C(C)C
6. O=[N+]([O-])c1ccc(/C=C/C=C/c2ccccc2)c(Cl)c1
7. O=c1cc(-c2ccccc2)[nH]c2c1CCCC2
8. CNS(=O)(=O)c1ccc(Cl)c(Cl)c1

1: 100; 2: 100; 3: 34.3; 4: 94.7; 5: 99.7; 6: 98.8; 7: 39.7; 8: 99.2

* * *

tested on: SK-OV-3 ovarian; test: NCI-60 one-dose screen, 48 h (100 = growth as untreated, 0 = no growth, -100 = all killed); conditions: 10 µM
Compounds without any hit were thinned out: in the full panel of roughly 83,000, 20% have a hit.
Exercise: state measured growth for each of the compounds provided.
One number for each entry, in %.

The following compounds have reported results that may help.
> print(dat)
                                   compound  endpoint.value
1               O=S(=O)(O)c1ccc(O)c2ccccc12            94.1
2              CCN(CC)C(=O)/C=C(/C)c1ccccc1             107
3  COc1ccc(Oc2c(I)cc(CC(NC(C)=O)C(=O)O)cc2I)cc1 (configuration not stated)             105

Would you be so kind as to report growth for each listed record?
1. N=c1c(C(=O)OCc2ccccc2)ncc(CCl)n1O
2. CCOC(=O)Nc1nn[nH]n1
3. O=c1[nH]n(-c2ccccc2)c(=O)cc1Cl
4. COC(=O)Nc1cccc(Cl)c1OC

[107, 116, 103, 116]

* * *

Exercise: state measured growth for each of the compounds provided.
test system: CCRF-CEM leukemia; assay: NCI-60 one-dose screen, 48 h (100 = growth as untreated, 0 = no growth, -100 = all killed); conditions: 10 µM
The panel holds about 83,000 compounds, 20% with a hit somewhere; the sample as a whole holds those more often.
Numbers only, in %.

The following compounds have reported results that may help.
> print(dat)
                                   compound  units.of.measure  endpoint.value
1  O=[N+]([O-])c1ccc(/C=C/C=C/c2ccccc2)c(Cl)c1                 %            90.7
2  CC(=O)c1sc2c(c1OC(=O)c1ccc(Cl)cc1Cl)c(=O)n(-c1ccccc1)c(=S)n2-c1ccccc1                 %           -24.2
3                        O=C1Cc2cc(O)ccc2O1                 %              94

Would you be so kind as to report growth for each listed record?
1. O=C(c1ccc(Cl)cc1)c1ccccc1Cl
2. O=C(/C=C/C(=O)c1ccccc1)c1ccccc1
3. CCC(O)CC(CC)CO (configuration not stated)
4. COc1ncnc2c1cnn2C
5. Cc1ccc(C)n1-c1ccsc1C(=O)NNC(=O)C(Cl)Cl

1. 90.5
2. 37.9
3. 96.2
4. 97
5. 85.3

* * *

system: EKVX NSCLC; test: NCI-60 one-dose screen, 48 h (100 = growth as untreated, 0 = no growth, -100 = all killed); conditions: 10 µM
The panel holds about 83,000 compounds, 20% with a hit somewhere; the sample as a whole holds those more often.
Criterion: growth meeting or surpassing 90%. Met: Yes. Not met: No.

> print(dat)
                                   compound  class.assignment
1  CC1(C)Nc2cccc3c(N=Nc4ccc(N=Nc5ccccc5)c5ccccc45)ccc(c23)N1                No
2                  c1ccc2c(N3CCCCC3)ncnc2c1               Yes
3         Nc1ccc(C(=O)c2ccc(N)c(Br)c2)cc1Br                No
4            CCOC(=O)c1[nH]c(C)c(C(C)=O)c1C               Yes

Hi, just wondering whether CNS(=O)(=O)c1ccc(Cl)c(Cl)c1 shows growth of 90% or higher. Yes

Hi, just wondering whether Cc1nc2ccccc2c2nnc(SCC(=O)N(Cc3ccccc3)c3ccccc3)n12 shows growth of 90% or higher. No

Hi, just wondering whether Cc1ccc(N)cc1[N+](=O)[O-] shows growth of 90% or higher. Yes

Hi, just wondering whether CCOc1ccc2[nH]c(=S)sc2c1 shows growth of 90% or higher. Yes

Hi, just wondering whether CCCCCCCCCCCCCC(=O)Oc1ccc[nH]c1=O shows growth of 90% or higher. No

Hi, just wondering whether O=[N+]([O-])c1ccc(N=Nc2ccccc2)cc1 shows growth of 90% or higher. Yes

Hi, just wondering whether C=C1CC/C=C(\C)C(=O)C[C@@H]2[C@@H]1CC2(C)C shows growth of 90% or higher. Yes

Hi, just wondering whether COc1ccc2c(c1)CCc1c-2n[nH]c1-c1[nH]nc2c1CCc1cc(OC)ccc1-2 shows growth of 90% or higher. No
